biological target: human glucagon receptor (human, UniProt P47871 26-477); assay: cell-based or functional assay
Sequence (P47871 26-477): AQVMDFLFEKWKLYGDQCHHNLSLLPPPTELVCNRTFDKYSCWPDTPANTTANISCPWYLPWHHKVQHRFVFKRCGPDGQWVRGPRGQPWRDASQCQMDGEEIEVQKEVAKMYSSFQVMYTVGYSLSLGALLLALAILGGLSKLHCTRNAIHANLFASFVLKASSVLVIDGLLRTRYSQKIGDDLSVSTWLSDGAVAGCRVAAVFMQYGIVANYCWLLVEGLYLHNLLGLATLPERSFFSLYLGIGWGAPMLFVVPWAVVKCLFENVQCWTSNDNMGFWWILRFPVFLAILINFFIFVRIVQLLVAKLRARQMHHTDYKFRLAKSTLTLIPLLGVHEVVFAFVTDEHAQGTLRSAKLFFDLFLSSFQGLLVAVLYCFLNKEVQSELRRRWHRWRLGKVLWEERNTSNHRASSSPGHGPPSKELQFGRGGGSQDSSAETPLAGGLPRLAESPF
Where no end group is shown, it is not given here. [ ]: non-standard residue; d: D form. αMePhe(2,6-F2) = C[C@](N)(Cc1c(F)cccc1F)C(=O)O; αMePhe(2-F) = C[C@](N)(Cc1ccccc1F)C(=O)O; αMeBip(OMe) = alpha-methylated Bip(OMe); hhPhe = N[C@@H](CCCc1ccccc1)C(=O)O; αMeD = C[C@](N)(CC(=O)O)C(=O)O; αMeP = C[C@@]1(C(=O)O)CCCN1; αMeAPPA = not defined here; αMeS = C[C@](N)(CO)C(=O)O; Aib = CC(C)(N)C(=O)O
Endpoint: cAMP production (pmol/ml/µg prt) with saturated glucagon peptide, at 10 µM
Numbers only, in pmol/ml/µg prt.

Example cases with answers are listed next.
[
  {
    "Binder": "VH[Aib]EGTFT[αMeS]D[αMeBip(OMe)][hhPhe]-NH2 [Seq. ID. No. 39]",
    "Observed Value": 6
  },
  {
    "Binder": "VH[αMeP]QGT[αMePhe(2-F)]T[αMeS]D[αMeBip(OMe)][hhPhe]-NH2 [Seq. ID. No. 44]",
    "Observed Value": 0
  },
  {
    "Binder": "VVHSEGTFTSD[αMeBip(OMe)][hhPhe] (not fully specified (C-terminus); printed as VVHSEGTFTSD-(αMe-Bip(OMe))-(APPA)) [Seq. ID. No. 209]",
    "Observed Value": 0
  }
]

# ---- query binder ----
Please look up its cAMP production (pmol/ml/µg prt) with saturated glucagon peptide, at 10 µM: VH[αMeP]QGT[αMePhe(2,6-F2)]TS[αMeD][αMeBip(OMe)][αMeAPPA] (not fully specified (C-terminus); reading uncertain) [Seq. ID. No. 200] 1

Sourced from patent US20120264685A1
